Each entry below carries its recorded OD ratio 17-22/BSA.
- Target Entity: T1, BSA-conjugated Aβ heptapeptide LVFFAEC (reading uncertain; also: BSA conjugate);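 also: ELISA binding of human antibody (10 or 2 µg/ml) to plate-coated BSA–peptide conjugates, detected with HRP anti-human Ig and TMB colour, mock-treated BSA as negative control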
- T1 construct: also called Peptide 17-22
- T1 peptide: LVFFAEC([NSMP-BSA])
- Experimental Details: ELISA
Groups on a side chain read outwards from the residue. No end group written: not given here. NSMP = not defined here

Solved cases below.
MSR 7.9.H2 IgG1 (antibody, V domains shown, full-length human IgG1) VH: QVELVESGGGLVQPGGSLRLSCAASGFTFSSYAMSWVRQAPGKGLEWVSAINADGNRKYYADSVKGRFTISRDNSKNTLYLQMNSLRAEDTAVYYCARGKGNTHKPYGYVRYFDVWGQGTLVTVSS VL: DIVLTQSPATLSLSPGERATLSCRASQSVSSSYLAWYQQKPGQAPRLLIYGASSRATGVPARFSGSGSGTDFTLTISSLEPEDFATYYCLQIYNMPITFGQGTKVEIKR ... 5
MS-R IgG1 3.6.H5 × 3.6.L2 (antibody, V domains shown, full-length human IgG1; VH entry starts at QLVESGG) VH: ELVESGGGLVQPGGSLRLSCAASGFTFSSYAMSWVRQAPGKGLEWVSAISESGKTKYYADSVKGRFTISRDNSKNTLYLQMNSLRAEDTAVYYCARLTHYARYYRYFDVWGQGTLVTVSS VL: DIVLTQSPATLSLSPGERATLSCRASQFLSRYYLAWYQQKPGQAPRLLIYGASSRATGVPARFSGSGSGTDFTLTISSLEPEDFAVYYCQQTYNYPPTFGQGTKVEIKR ... 7
MS-R #7.12 IgG1 (antibody, V domains shown, full-length human IgG1) VH: QVELVESGGGLVQPGGSLRLSCAASGFTFSSYGMSWVRQAPGKGLEWVSNISGSGSSTYYADSVKGRFTISRDNSKNTLYLQMNSLRAEDTAVYYCARGKGNTHKPYGYVRYFDVWGQGTLVTVSS VL: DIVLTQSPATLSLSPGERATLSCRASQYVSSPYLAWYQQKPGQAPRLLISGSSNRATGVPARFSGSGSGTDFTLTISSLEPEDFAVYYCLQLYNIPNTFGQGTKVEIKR ... 11
MS-R IgG 7.11H2 (antibody, V domains shown, full-length human IgG; also called 7.11H2 IgG) VH: QVELVESGGGLVQPGGSLRLSCAASGFTFSSYAMSWVRQAPGKGLEWVSAINANGYKKYYADSVKGRFTISRDNSKNTLYLQMNSLRAEDTAVYYCARGKGNTHKPYGYVRYFDVWGQGTLVTVSS VL: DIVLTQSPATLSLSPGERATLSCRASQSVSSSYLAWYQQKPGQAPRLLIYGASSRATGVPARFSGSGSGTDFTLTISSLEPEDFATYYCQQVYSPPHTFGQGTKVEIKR ... 6
MS-R IgG 8.2.H2 × 8.2.L1 (antibody, V domains shown, full-length human IgG) VH: QVELVESGGGLVQPGGSLRLSCAASGFTFSSYAMSWVRQAPGKGLEWVSAISRTGSKTYYADSVKGRFTISRDNSKNTLYLQMNSLRAEDTAVYYCARLLSRGYNGYYHKFDVWGQGTLVTVSS VL: DIVLTQSPATLSLSPGERATLSCRASQRVSGRYLAWYQQKPGQAPRLLIYGASSRATGVPARFSGSGSGTDFTLTISSLEPEDFATYYCQQLSSYPPTFGQGTKVEIKR ... 20

The record that follows has no OD ratio 17-22/BSA shown yet.
[ask] Record request: OD ratio 17-22/BSA value, item MS-R #7.9.H7 IgG1 (antibody, V domains shown, full-length human IgG1; also called MAB 31; MS-Roche IgG #7.9.H7) VH: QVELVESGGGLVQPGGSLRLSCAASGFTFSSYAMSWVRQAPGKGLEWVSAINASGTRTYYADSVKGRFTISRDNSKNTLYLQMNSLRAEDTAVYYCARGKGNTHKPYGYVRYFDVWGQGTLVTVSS VL: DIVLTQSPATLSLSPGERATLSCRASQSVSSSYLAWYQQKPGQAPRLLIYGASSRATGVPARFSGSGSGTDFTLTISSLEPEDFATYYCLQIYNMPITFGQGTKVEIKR
[reply] 5

These data points were gathered from patent US20100172907A1.
